System: VchCAST RNA-guided transposition machinery (E. coli BL21(DE3) host, lacZ target)
Assay: relative integration efficiency (T-LR orientation) vs wild-type transposon end (log2 (normalized fold change)); transposon end mutated: right end (5 bp flank + 75 bp right end); higher = more efficient transposition
readout.type: relative integration efficiency (log2)
Numbers only.

Worked set:
sequence.text: ACATTTGTTGATACAACCAGCCCCGTCGCCGGCACAAACGCCCGGTCGCCGGCGACACAAACGCCCGGTCGCGGTAAGAGGATCATAGTCAGACCAACATTGCTACGACCCGTATTCGCACCGACAC
relative integration efficiency (log2): -6.28
--
sequence.text: ACATTTGTTGATACAACCATAAAAGTCGAATTACACCCATAAATTGATAATTATCACACCCATAAATTGATATTGCCTCTGATCATAGTCAGACCAACATTGCTACGACCCGTATTCGCACCGACAC
relative integration efficiency (log2): -3.24

Each sequence below has a recorded value; state its relative integration efficiency (log2).
1. ACATTTGTTGATACAACCATAAAATGATAATTACACCCATAAATTGATAATTATCACACCCATAAATTGATATTGCCTCTTCATGCAGATTTGAACAGTAAGTTTACGACATTTTCAGCACCGACAC
2. ACATTTGTGGATACAACCATAAAATGATAATTACCACCCCTACATTGATAATTATCACACCCATTTAACTATAACGCTCTGATCATAGTCAGACCAACATTGCTACGACCCGTATTCGCACCGACAC
3. ACATTTGTTGATACAACCATAAAATGATAATTACACCCATAAATTGATAATTATCACACCCATAAATTGATATTGCCTCTGATCATAGTCAGACCAACAACCATAAAATGATAATTAGCACCGACAC

1. 1.32
2. -0.503
3. -0.0679
